system: ICS; assay: qHTS profiling for inhibitors of Plasmodium falciparum proliferation (AID 504749); further: nearly all actives have a fitted effect of over 60% in size; further: potency means the concentration at half of the fitted maximal effect; details: P. falciparum in erythrocytes, SYBR Green DNA, 72 h; series mostly up to 28.7 µM
Results filed as inconclusive are left out. Calls of active or inactive are those of the source. The call rests on the fitted dose curve; in most records, active means well fitted inhibition curve with a large enough effect; inconclusive means small, poorly fitted or top-dose-only effect; inactive means flat fitted curve, though single readings scatter.

- molecule: "C[C@]12CC[C@H]3c4ccc(O)cc4CC[C@@H]3[C@H]1CC[C@@H]2OC(=O)CCC1CCCC1"
  Potency: "3.16 µM (active)"
- molecule: "Cc1onc(-c2c(F)cccc2Cl)c1C(=O)N[C@@H]1C(=O)N2[C@H]1SC(C)(C)[C@H]2C(=O)O"
  Potency: "inactive"
- molecule: "NS(=O)(=O)c1cc2c(cc1Cl)N[C@H](Cc1ccccc1)NS2(=O)=O"
  Potency: "inactive"
- molecule: "CN1[C@@H]2CC(OC(=O)[C@@H](CO)c3ccccc3)C[C@@H]1[C@H]1O[C@H]12 (some centres not stated)"
  Potency: "inactive"
- molecule: "C=C(NC(=O)C(=C)NC(=O)c1csc(C2=N[C@@H]3c4csc(n4)[C@@H]4NC(=O)c5csc(n5)[C@@H]([C@](C)(O)[C@H](C)O)NC(=O)[C@@H]5CSC(=N5)/C(=C/C)NC(=O)[C@@H]([C@H](C)O)NC(=O)c5csc(n5)[C@]3(CC2)NC(=O)[C@@H](C)NC(=O)C(=C)NC(=O)[C@@H](C)NC(=O)[C@@H]([C@@H](C)CC)N[C@H]2C=Cc3c([C@H](C)O)cc(nc3[C@@H]2O)C(=O)O[C@H]4C)n1)C(N)=O"
  Potency: "3.16 µM (active)"
- molecule: "Cc1c(C(=O)O)c(O)cc2c1C(=O)c1c(O)c([C@H]3O[C@H](CO)[C@@H](O)[C@H](O)[C@H]3O)c(O)c(O)c1C2=O"
  Potency: "inactive"
- molecule: "CO/N=C(\\C(=O)N[C@@H]1C(=O)N2C(C(=O)[O-])=C(C[N+]3(C)CCCC3)CS[C@@H]12)c1csc(N)n1"
  Potency: "inactive"

====

assay: Stat Signaling Pathway (AID 446); conditions: ME-180 (cervical carcinoma) SIE beta-lactamase reporter, IL-6 stimulated, 5 h; at 7.69 µM (top of the series) unless noted;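 further: ME-180 cervical cancer cells given 40 pM IL-6 alongside compound; SIE-controlled beta-lactamase reporter measured as 460/530 nm FRET emission ratio; on the % scale 0 is the no-effect control and ±100 the full control effect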
Inconclusive results are not listed. Calls of active or inactive are those of the source. Calls follow the shape of the dose curve; as a rule, active = well fitted curve in either direction with a large enough effect (not every such curve was filed as active); inconclusive = small, poorly fitted or top-dose-only effect, or another doubt; inactive = flat fitted curve, though single readings scatter. Residues, ends and D or L forms follow the SMILES beside them.
As shown below, each of these compounds has a reported activity, negative = inhibition value.
measure: activity, negative = inhibition

- compound: "NC1(C(=O)NC2(C(=O)O)CCCC2)CCCC1 (HELM PEPTIDE1{[NC1(C(=O)[*:2])CCCC1].[O=C(O)C1(N[*:1])CCCC1]}$$$$V2.0)"
  reported.result: "8.97% (inactive)"
- compound: "c1cncc(-c2cc(-c3cc(-c4cccnc4)n[nH]3)[nH]n2)c1"
  reported.result: "-1.32% (inactive)"
- compound: "CCc1ccc2c(c1)N(C[C@H](C)CN(C)C)c1ccccc1S2"
  reported.result: "3.53% (inactive)"
- compound: "CC(C)[C@@H]1NC(=O)[C@H](CCCCN)NC(=O)[C@H](Cc2c[nH]c3ccccc23)NC(=O)[C@H](Cc2ccc(O)cc2)NC(=O)[C@H](C)N(C)C(=O)[C@H](Cc2ccccc2)NC1=O"
  reported.result: "-2.13% [at 38 µM] (inactive)"

====

target: Glucocorticoid receptor (Homo sapiens); assay: GR-EFC Redistribution (AID 451); details: CHO-K1 GR-EFC translocation, beta-gal luminescence, 2 h; further: potency means the concentration at half of the fitted maximal effect
Calls of active or inactive are those of the source. Calls come from the whole dose curve.
As shown below, each of these molecules has a reported Potency value.

- compound.structure: "O=C(O)[C@@H]1[C@@H](C(=O)NCc2cccnc2)[C@@H]2C=C[C@@H]1O2"
  Potency: "> 9.22 µM (inactive)"
- compound.structure: "COc1ccccc1-c1nc(NCc2ccccc2)c2ccccc2n1"
  Potency: "> 46 µM (inactive)"
- compound.structure: "CC(C)C[C@H](NC(=O)[C@@H](O)[C@@H](N)Cc1ccccc1)C(=O)O"
  Potency: "> 46 µM (inactive)"
- compound.structure: "COc1ccc2c(Cl)cc(NC(=S)Nc3ccccc3)nc2c1"
  Potency: "> 9.22 µM (inactive)"
- compound.structure: "Oc1ccc(Cl)cc1Cc1cc(Cl)cc(Cc2cc(Cl)ccc2O)c1O"
  Potency: "> 9.22 µM (inactive)"
- compound.structure: "Nc1nc2c(c(=O)[nH]1)CN(c1ccc(S(N)(=O)=O)cc1)CN2"
  Potency: "> 9.22 µM (inactive)"
- compound.structure: "Nc1nc(Nc2ccccc2)nc2c1ncn2[C@@H]1O[C@@H](CO)[C@H](O)[C@@H]1O"
  Potency: "> 46 µM (inactive)"
- compound.structure: "O=C(O)[C@H]([C@H]1NCCS1)N1C(=O)c2ccccc2C1=O"
  Potency: "> 9.22 µM (inactive)"
- compound.structure: "CC(C)=N[C@H](C(=O)O)C(C)(C)S"
  Potency: "> 9.22 µM (inactive)"
- compound.structure: "CC(C)=C[C@H]1[C@@H](COC(=O)c2cc3c(cc2Cl)OCO3)C1(C)C"
  Potency: "> 9.22 µM (inactive)"
